// provenance: patent US8344008B2

For each record, write down the corresponding pKi.
# assay-system: recombinant human LTA4 hydrolase (rhLTA4H) (Homo sapiens, UniProt P09960)
# assay-info: Recombinant Human LTA4 Hydrolase Assay for LTA4 Hydrolase Inhibitor Activity
# cond: average of results obtained; LTB4 quantified by enzyme-linked immunoassay
Give bare numbers, as −log10 of the molar value.

Before answering, review these 3 worked examples.
CS(=O)(=O)N[C@@H]1C[C@H]2CC[C@@H](C1)N2CCc1ccc(Oc2nc3c(Cl)cccc3s2)cc1 [Example 162]	6.73
NC(=O)N1CC2CCN(Cc3ccc(Oc4nc5ccccc5s4)cc3)C2C1 (stereo not shown) [Example 136]	7.62
Cc1ccc2nc(Oc3ccc(CCN4CC5CN(C(N)=O)CC5C4)cc3)sc2c1 (stereo not shown) [Example 146]	7.11

Go through the items and report each one's pKi.
1. CC(=O)N1CC2CN(Cc3ccc(Cc4nc5ccccc5s4)cc3)CC2C1 (stereo not shown) [Example 149]
2. NCC(=O)N[C@H]1C[C@H]2CC[C@@H](C1)N2Cc1ccc(Oc2nc3ccccc3s2)cc1 [Example 56]
3. CCOC(=O)CN1CC2CN(Cc3ccc(Oc4nc5ccccc5s4)cc3)CC2C1 (stereo not shown) [Example 155]
4. NC(=O)N[C@H]1C[C@H]2CC[C@@H](C1)N2CCOc1ccc(Oc2nc3c(F)cccc3s2)cc1 [Example 262]

Response given:
1: 7.10; 2: 7.52; 3: 6.77; 4: 7.92

###

For each record, write down the corresponding Ki.
# assay-system: recombinant human LTA4 hydrolase (rhLTA4H) (Homo sapiens)
# assay-info: Recombinant Human LTA4 Hydrolase Assay for LTA4 Hydrolase Inhibitor Activity
# cond: average of results obtained; LTB4 quantified by enzyme-linked immunoassay
Answers are plain numbers, in nM.

Go through the items and report each one's Ki.
1. NC(=O)N[C@H]1C[C@H]2CC[C@@H](C1)N2CCc1ccc(Oc2nc3cccc(F)c3s2)cc1 [Example 190]
2. CS(=O)(=O)N1C2CCC1CN(Cc1ccc(Oc3nc4ccccc4s3)cc1)C2 [Example 57]
3. Cc1noc(C)c1NC(=O)N1CC2CN(Cc3ccc(Oc4nc5ccccc5s4)cc3)CC2C1 (centres unmarked) [Example 133]
4. CS(=O)(=O)N1C[C@@H]2C[C@H]1CN2CCc1ccc(Oc2nc3cccc(F)c3s2)cc1 [Example 232]
5. NC(=O)N[C@@H]1C[C@H]2CC[C@@H](C1)N2CCOc1ccc(Oc2nc3ccc(Cl)cc3s2)cc1 [Example 234]
6. Cn1ccc(C(=O)N2CC3CN(Cc4ccc(Oc5nc6ccccc6s5)cc4)CC3C2)c1 (centres unmarked) [Example 108]
7. CC(=O)N1CC2CCC(C1)N2CCc1ccc(Oc2nc3ccc(Cl)cc3s2)cc1 [Example 250]
8. NC(=O)N[C@@H]1C[C@H]2CC[C@@H](C1)N2Cc1ccc(Oc2nc3cc(F)ccc3s2)cc1 [Example 260]

Response given:
16
173
20
72
72
97
232
26

###

# assay-system: recombinant human LTA4 hydrolase (rhLTA4H) (Homo sapiens, UniProt P09960)
# assay-info: Recombinant Human LTA4 Hydrolase Assay for LTA4 Hydrolase Inhibitor Activity
# cond: average of results obtained; LTB4 quantified by enzyme-linked immunoassay
# Method: Biological Methods: Recombinant Human LTA4 Hydrolase Assay for LTA4 Hydrolase Inhibitor Activity Compounds of the present invention were tested for LTA4 hydrolase inhibitor activity against recombinant human LTA4 hydrolase (rhLTA4H). Vectors were prepared and used to express rhLTA4H essentially as follows: LTA4 hydrolase encoding DNA was amplified by polymerase chain reaction (PCR) using a human placental cDNA library as a template. […]
readout-label: log10(Ki) (log10 of the value in nM)
Kindly note that the scale is log10 and the underlying Ki is in nM.

Before answering, review these 5 worked examples.
NCC(=O)N1CC2CN(Cc3ccc(Oc4nc5ccccc5s4)cc3)CC2C1 (centres unmarked) [Example 97]	1.52
O=C(C1CCC1)N1CC2CN(Cc3ccc(Oc4nc5ccccc5s4)cc3)CC2C1 (centres unmarked) [Example 104]	1.79
CC(=O)N1C[C@@H]2C[C@H]1CN2Cc1ccc(Oc2nc3ccccc3s2)cc1F [Example 79]	1.77
Cc1ccc2nc(Oc3ccc(CCN[C@@H]4C[C@H]5CC[C@@H](C4)N5C(N)=O)cc3)sc2c1 [Example 173]	2.99
CS(=O)(=O)N1C[C@H]2C[C@@H]1CN2CCOc1ccc(Oc2nc3c(Cl)cccc3s2)cc1 [Example 203]	2.47

Go through the items and report each one's log10(Ki).
1. O=C(CO)N1C[C@@H]2C[C@H]1CN2CCc1cccc(Oc2nc3ccccc3s2)c1 [Example 20]
2. CS(=O)(=O)N1CC2CCC(C1)N2CCOc1ccc(Oc2nc3ccc(Cl)cc3s2)cc1 [Example 169]

Response given:
1.86
2.84

Challenge: Please state recorded log10(Ki) (tested on recombinant human LTA4 hydrolase (rhLTA4H) (Homo sapiens, UniProt P09960)) of CC(=O)N[C@H]1C[C@H]2CC[C@@H](C1)N2Cc1ccc(Oc2nc3c(C)cccc3s2)cc1 [Example 72]
Response given: 1.99

###

# assay-system: recombinant human LTA4 hydrolase (rhLTA4H) (Homo sapiens)
# assay-info: Recombinant Human LTA4 Hydrolase Assay for LTA4 Hydrolase Inhibitor Activity
# cond: average of results obtained; LTB4 quantified by enzyme-linked immunoassay
Entries are sorted into classes by Ki as follows: lower bin (below 40 nM), middle bin (40 nM to below 100 nM), upper bin (100 nM or more)

Cc1ccc2nc(Oc3ccc(CN4CC5CN(C(N)=O)CC5C4)cc3)sc2c1 (centres unmarked) [Example 145]	upper bin
NC(=O)N1C[C@@H]2C[C@H]1CN2Cc1ccc(Oc2nc3ccccc3s2)cc1F [Example 80]	middle bin
CS(=O)(=O)N1[C@@H]2CC[C@H]1C[C@H](NCc1ccc(Oc3nc4cc(Cl)ccc4s3)cc1)C2 [Example 185]	upper bin

Challenge: Which band does CC(=O)N1CC2CCN(Cc3ccc(Oc4nc5ccccc5s4)cc3)C2C1 (centres unmarked) [Example 86] fall in?
Response given: middle bin

Challenge: Which band does CC(=O)N1CC2CCC(C1)N2CCOc1ccc(Oc2nc3cc(F)ccc3s2)cc1 [Example 199] fall in?
Response given: lower bin

Challenge: Which band does CS(=O)(=O)N1CCC2CN(Cc3ccc(Oc4nc5ccccc5s4)cc3)CC2C1 (centres unmarked) [Example 130] fall in?
Response given: lower bin

###

# assay-system: recombinant human LTA4 hydrolase (rhLTA4H) (Homo sapiens)
# Sequence (P09960 1-611): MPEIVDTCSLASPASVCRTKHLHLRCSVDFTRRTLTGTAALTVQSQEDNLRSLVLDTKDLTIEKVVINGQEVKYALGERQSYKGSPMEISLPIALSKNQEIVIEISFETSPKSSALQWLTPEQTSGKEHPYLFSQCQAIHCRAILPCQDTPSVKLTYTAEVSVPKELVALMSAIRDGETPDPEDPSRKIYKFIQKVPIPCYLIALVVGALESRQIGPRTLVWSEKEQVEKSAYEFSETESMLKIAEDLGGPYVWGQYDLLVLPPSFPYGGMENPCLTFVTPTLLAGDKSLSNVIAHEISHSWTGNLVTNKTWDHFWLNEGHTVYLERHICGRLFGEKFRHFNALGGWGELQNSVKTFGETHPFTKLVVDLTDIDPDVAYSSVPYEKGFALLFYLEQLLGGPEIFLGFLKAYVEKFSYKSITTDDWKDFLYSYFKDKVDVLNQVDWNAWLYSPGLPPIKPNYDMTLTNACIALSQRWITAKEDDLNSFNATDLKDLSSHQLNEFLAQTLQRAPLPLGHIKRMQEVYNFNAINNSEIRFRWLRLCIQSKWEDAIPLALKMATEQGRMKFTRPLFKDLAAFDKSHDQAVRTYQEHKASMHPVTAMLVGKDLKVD
# assay-info: Recombinant Human LTA4 Hydrolase Assay for LTA4 Hydrolase Inhibitor Activity
# cond: average of results obtained; LTB4 quantified by enzyme-linked immunoassay
readout-label: pKi
One number for each entry, as −log10 of the molar value.

Before answering, review these 3 worked examples.
CS(=O)(=O)N1CC2CCC(C1)N2CCOc1ccc(Oc2nc3cc(Cl)ccc3s2)cc1 [Example 256]	5.77
O=C(Nc1ccncc1)N1CC2CN(Cc3ccc(Oc4nc5ccccc5s4)cc3)CC2C1 (stereo not shown) [Example 132]	7.74
CC(=O)N[C@H]1C[C@H]2CC[C@@H](C1)N2Cc1ccc(Oc2nc3c(F)cccc3s2)cc1F [Example 160]	9.00

# context switch: different molecule, same pKi
Challenge: Would you kindly share the measured pKi for NC(=O)N1C[C@@H]2C[C@H]1CN2Cc1cccc(Oc2nc3ccccc3s2)c1 [Example 33] ?
Response given: 6.79

###

For each record, write down the corresponding pKi.
# assay-system: recombinant human LTA4 hydrolase (rhLTA4H) (Homo sapiens, UniProt P09960)
# Sequence (P09960 1-611): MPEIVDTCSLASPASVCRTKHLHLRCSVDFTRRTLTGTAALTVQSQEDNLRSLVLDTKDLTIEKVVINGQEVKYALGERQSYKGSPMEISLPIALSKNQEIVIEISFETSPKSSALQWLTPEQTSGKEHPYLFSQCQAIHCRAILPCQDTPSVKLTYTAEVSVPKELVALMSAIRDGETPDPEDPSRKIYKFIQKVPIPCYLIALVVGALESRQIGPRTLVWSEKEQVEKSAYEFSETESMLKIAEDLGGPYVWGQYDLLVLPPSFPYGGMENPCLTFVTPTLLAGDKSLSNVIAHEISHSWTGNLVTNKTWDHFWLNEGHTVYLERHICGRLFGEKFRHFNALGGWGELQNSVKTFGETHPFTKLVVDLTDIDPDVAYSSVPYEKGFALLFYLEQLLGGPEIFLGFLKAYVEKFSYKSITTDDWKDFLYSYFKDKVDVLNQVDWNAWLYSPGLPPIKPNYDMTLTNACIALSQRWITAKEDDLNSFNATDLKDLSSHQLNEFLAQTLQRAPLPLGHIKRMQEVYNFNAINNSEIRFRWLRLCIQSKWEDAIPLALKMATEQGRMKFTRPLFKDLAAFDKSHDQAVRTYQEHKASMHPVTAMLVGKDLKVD
# assay-info: Recombinant Human LTA4 Hydrolase Assay for LTA4 Hydrolase Inhibitor Activity
# cond: average of results obtained; LTB4 quantified by enzyme-linked immunoassay
Give bare numbers, as −log10 of the molar value.

Before answering, review these 6 worked examples.
CS(=O)(=O)N[C@H]1C[C@H]2CC[C@@H](C1)N2Cc1ccc(Oc2nc3c(Cl)cccc3s2)cc1	7.48
CC(=O)N1[C@@H]2CC[C@H]1C[C@@H](NCCc1ccc(Oc3nc4ccc(Cl)cc4s3)cc1)C2	7.48
CC(=O)N[C@H]1C[C@H]2CC[C@@H](C1)N2CCOc1ccc(Oc2nc3ccc(C)cc3s2)cc1	7.10
CC(C)(O)C(=O)N1C[C@@H]2C[C@H]1CN2Cc1ccc(Oc2nc3ccccc3s2)cc1	7.51
CC(C)(C)OC(=O)NCC(=O)N1C[C@@H]2C[C@H]1CN2CCOc1ccc(Oc2nc3ccccc3s2)cc1	7.80
NC(=O)N1CC2CN(Cc3ccc(Oc4nc5ccc(F)cc5s4)cc3)CC2C1 (stereo not shown)	7.00

Go through the items and report each one's pKi.
1. O=C(CO)N1CC2CCN(Cc3ccc(Oc4nc5ccccc5s4)cc3)CC2C1 (stereo not shown)
2. CN(Cc1ccc(Oc2nc3ccccc3s2)cc1)[C@H]1C[C@H]2CC[C@@H](C1)N2C(N)=O
3. O=C(CNC(=O)C(F)(F)F)N1CCC2CN(Cc3ccc(Oc4nc5ccccc5s4)cc3)CC21 (stereo not shown)
4. CS(=O)(=O)N1C[C@@H]2C[C@H]1CN2CCOc1ccc(Oc2nc3c(F)cccc3s2)cc1
5. O=C(CO)N1CCC2CN(Cc3ccc(Oc4nc5ccccc5s4)cc3)CC2C1 (stereo not shown)
6. CC(=O)N[C@@H]1C[C@H]2CC[C@@H](C1)N2CCOc1ccc(Oc2nc3c(Cl)cccc3s2)cc1

Response given:
1. 7.70
2. 7.02
3. 7.40
4. 7.49
5. 7.89
6. 6.29
